- procedure summary: GFP drop in mixed WT/humanized-ribosome E. coli culture – GFP/RFP fluorescence, OD600, single point, bacterial rRNA inhibitor project, primary screen (AID 720706)
- run parameters: E. coli WT GFP vs humanized-ribosome RFP mutants, 24 h; active compounds read low, DMSO median 0, no signal -100
Among all 350,000 compounds or so, about 5,500 (1.6%) were called active. For the sample, actives were picked, then their nearest neighbours and some compounds at random.
test readout: GFP signal change (wild-type ribosome) (%)

| smiles repr | output unit | reported value |
| --- | --- | --- |
| CCN(CC)C(=O)C(=O)c1cn(CC(=O)NCc2ccc3c(c2)OCO3)c2ccccc12 | % | 10.3 |
| Cc1noc(C)c1NC(=O)Nc1ccc2c(c1)C(=O)N([C@H](C)CO)C[C@@H](C)[C@@H](CN(C)Cc1ccncc1)OCCCC[C@H](C)O2 | % | 0.824 |
| CO[C@@H](CN(C)C(=O)c1cnccn1)[C@H](C)CN([C@H](C)CO)S(=O)(=O)c1ccc(C)cc1 | % | 1.87 |
| CCCN(C)C[C@@H]1OCCCC[C@@H](C)Oc2ccc(NC(=O)CCCN(C)C)cc2C(=O)N([C@H](C)CO)C[C@@H]1C | % | -2.58 |
| O=C(c1cccc(F)c1)N1CCN(c2ccc([N+](=O)[O-])c3cccnc23)CC1 | % | -17.8 |
| O=C(c1ccc(N2CCOCC2)c([N+](=O)[O-])c1)N1CCN(c2ccccc2F)CC1 | % | -19.6 |
| CCC(=O)N1CCC2(CC1)CN(Cc1ccc(Cl)cc1)[C@@H](CO)c1[nH]c3cc(OC)ccc3c12 | % | 0.255 |
| Cn1cc(CCC(=O)NC2CC2)c2ccccc21 | % | 4.27 |
